tested on: EFA 29212 (Enterococcus faecalis (ATCC29212)); test: Microtitre plate assay, IC90 determination; assay type: cell-based; settings: Enterococcus faecalis (ATCC29212)
Exercise: for every item that follows, state its recorded IC90 (μg/ml) EFA 29212.
Answers are plain numbers, in µg/mL.

Below: 3 compounds and their reported IC90 (μg/ml) EFA 29212.
{"COMPOUND": "COc1nc2ccc(Br)cc2cc1C(c1ccccc1)C(O)(CCCCN(C)C)c1ccc2ccccc2c1 (stereo not shown) [Compound 17]", "TESTED_TARGET": "EFA 29212 (Enterococcus faecalis (ATCC29212))", "RECORDED_MEASUREMENT": 5.2}
{"COMPOUND": "CNCCCCC(O)(c1ccc2ccccc2c1)C(c1ccccc1)c1cc2cc(Br)ccc2nc1OC (racemic) [Compound 74]", "TESTED_TARGET": "EFA 29212 (Enterococcus faecalis (ATCC29212))", "RECORDED_MEASUREMENT": 9.03}
{"COMPOUND": "COc1nc2ccc(Br)cc2cc1C(c1ccccc1)C(O)(CCCN1CCCC1)c1ccc2ccccc2c1 (racemic) [Compound 48]", "TESTED_TARGET": "EFA 29212 (Enterococcus faecalis (ATCC29212))", "RECORDED_MEASUREMENT": 59.6}

The compound identified as COc1nc2ccc(-c3ccccc3)cc2cc1C(c1ccccc1)C(O)(CCCCN(C)C)c1ccc2ccccc2c1 (stereo not shown) [Compound 40] registered its IC90 (μg/ml) EFA 29212 at 1.8

---

Could you please report measured IC90 for the items listed next?
test system: EFA 29212 (Enterococcus faecalis (ATCC29212)); assay: Microtitre plate assay, IC90 determination; format: cell-based; settings: Enterococcus faecalis, ATCC29212, Enterococcus faecalis (ATCC29212); read-out: IC90 (μg/ml) EFA 29212
Answers are plain numbers, in µg/mL.

Use the examples below as a reference point.
{"COMPOUND": "COc1nc2cccc(Br)c2cc1C(c1ccccc1)C(O)(CCCCN(C)C)c1ccc2ccccc2c1 (stereo not shown) [Compound 29]", "IC90 (µg/mL)": 46.3}
{"COMPOUND": "COc1nc2ccc(Br)cc2cc1C(c1ccccc1)C(O)(CCCCN(C)C)c1ccccc1 (stereo not shown) [Compound 20]", "IC90 (µg/mL)": 10.6}
{"COMPOUND": "COc1nc2ccc(Br)cc2cc1C(c1ccccc1)C(O)(CCCN(C)C)c1ccc2ccccc2c1 (stereo not shown) [Compound 46]", "IC90 (µg/mL)": 50.8}
{"COMPOUND": "COc1nc2ccc(Br)cc2cc1C(c1ccccc1)C(O)(CCCCN1CCNCC1)c1ccc2ccccc2c1 (stereo not shown) [Compound 107]", "IC90 (µg/mL)": 1.98}

List IC90 for every entry below, keeping the order given.
1. CNCCCCC(O)(c1ccccc1)C(c1ccccc1)c1cc2cc(Br)ccc2nc1OC (stereo not shown) [Compound 53]
2. CSc1nc2ccc(Br)cc2cc1C(c1ccccc1)C(O)(CCCCN(C)C)c1ccc2ccccc2c1 (single isomer, unassigned) [Compound 4]
3. COc1nc2ccc(Br)cc2cc1C(c1ccccc1)C(O)(CCCCCN(C)C)c1ccc2ccccc2c1 (stereo not shown) [Compound 59]
4. COc1nc2ccc(Br)cc2cc1C(c1ccccc1)C(O)(CCCN(C)C)c1cccc2ccccc12 (stereo not shown) [Compound 50]
5. CNCCCC(O)(c1ccc(F)cc1)C(c1ccccc1)c1cc2cc(Br)ccc2nc1OC (stereo not shown) [Compound 69]
6. COc1ccc2cc(C(O)(CCCCN(C)C)C(c3ccccc3)c3cc4ccc(Br)cc4nc3OC)ccc2c1 (stereo not shown) [Compound 31]
7. COc1nc2ccc(Br)cc2cc1C(c1ccccc1)C(O)(CCCN(C)C)c1ccccc1 (stereo not shown) [Compound 44]
8. CCN(CC)CCCC(O)(c1ccc2ccccc2c1)C(c1ccccc1)c1cc2cc(Br)ccc2nc1OC (stereo not shown) [Compound 51]

Response:
1: 1.64; 2: 9.5; 3: 1.89; 4: 57; 5: 9.3; 6: 10.9; 7: 26; 8: 59.8

Measured IC90, COc1nc2ccccc2cc1C(c1ccc(Br)cc1)C(O)(CCCCN(C)C)c1ccc2ccccc2c1 (stereo not shown) [Compound 64] : 1.85
